Biological target: O-GlcNAcase from Bacteroides thetaiotaomicron (Bacteroides thetaiotaomicron)
Construct: gene BT_4395; gene from D. Vocadlo; GH84
Sequence (Q89ZI2 22-737, change not shown): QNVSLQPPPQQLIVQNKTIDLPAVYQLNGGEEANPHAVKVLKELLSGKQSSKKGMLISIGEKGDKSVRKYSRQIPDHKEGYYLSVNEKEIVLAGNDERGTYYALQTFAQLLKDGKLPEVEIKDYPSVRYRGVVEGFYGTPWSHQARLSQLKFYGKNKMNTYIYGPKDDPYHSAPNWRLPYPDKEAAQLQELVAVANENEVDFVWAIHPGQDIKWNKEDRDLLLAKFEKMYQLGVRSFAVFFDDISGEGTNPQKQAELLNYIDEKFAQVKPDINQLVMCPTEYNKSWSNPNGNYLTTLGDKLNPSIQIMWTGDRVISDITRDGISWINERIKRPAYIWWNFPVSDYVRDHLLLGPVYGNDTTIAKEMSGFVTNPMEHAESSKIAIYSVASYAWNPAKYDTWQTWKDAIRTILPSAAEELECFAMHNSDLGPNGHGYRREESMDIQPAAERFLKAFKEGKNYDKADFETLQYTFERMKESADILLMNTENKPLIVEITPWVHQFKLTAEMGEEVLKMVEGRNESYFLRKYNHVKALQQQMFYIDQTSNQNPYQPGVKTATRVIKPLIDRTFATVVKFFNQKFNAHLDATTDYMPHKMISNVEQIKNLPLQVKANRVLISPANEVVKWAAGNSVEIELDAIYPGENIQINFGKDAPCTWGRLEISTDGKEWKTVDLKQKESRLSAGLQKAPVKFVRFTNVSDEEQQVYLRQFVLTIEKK
Assay: pNP-β-GlcNAc hydrolysis, kinetic assay at […] nm
Assay type: biochemical
Conditions: read-out: KI [μM] / C-6-azido-NAG-thiazoline (2)
RECORDED_METRIC: Ki (µM)

>>> df
                            chemical_string                             system_tested  recorded_metric  unit_spec  result
0  CC1=N[C@@H]2[C@@H](O)[C@H](O)[C@@H](CN=[N+]=[N-])O[C@@H]2S1  O-GlcNAcase from Bacteroides thetaiotaomicron (Bacteroides thetaiotaomicron)               Ki         µM     3.1
